Just for reference, patent US8969395B2 is where these values come from.

system: HepG2 (human hepatocellular carcinoma); assay: Cytotoxic activity, MTT assay, HepG2; format: cell-based; settings: 72 h, mean ±SD
observed property: IC50 (µM)

compound: Cc1nccn1C(=O)OC[C@]12CC[C@@H]([C@@H](C)C=O)C1[C@H]1CC[C@@H]3[C@@]4(C)CC[C@H](O)C(C)(C)[C@@H]4CC[C@@]3(C)[C@]1(C)CC2 (stereo partly drawn)
measured result: 14.3
//
compound: C=C(C)[C@@H]1CC[C@]2(C(=O)n3ccnc3)CC[C@]3(C)[C@H](CC[C@@H]4[C@@]5(C)CCC(=O)C(C)(C)[C@@H]5CC[C@]43C)[C@@H]12
measured result: 0.8
//
compound: C=C(C)[C@@H]1CC[C@]2(C(=O)n3ccnc3C)CC[C@]3(C)[C@H](CC[C@@H]4[C@@]5(C)C=CC(=O)C(C)(C)[C@@H]5CC[C@]43C)[C@@H]12
measured result: 12.7

====

system: HepG2 (human hepatocellular carcinoma); assay: Cytotoxic activity, MTT assay, HepG2; type: cell-based; settings: 72 h, mean ±SD

entry smiles: C=C(C)[C@@H]1CC[C@]2(COC(=O)n3ccnc3)CC[C@]3(C)[C@H](CC[C@@H]4[C@@]5(C)CC[C@H](OC(=O)n6ccnc6)C(C)(C)[C@@H]5CC[C@]43C)[C@@H]12
IC50: > 30 µM
--
entry smiles: C=C(C)[C@@H]1CC[C@]2(COC(=O)n3ccnc3C)CC[C@]3(C)[C@H](CC[C@@H]4[C@@]5(C)CC[C@H](OC(C)=O)C(C)(C)[C@@H]5CC[C@]43C)[C@@H]12
IC50: > 30 µM
--
entry smiles: C[C@@H](C=O)[C@@H]1CC[C@]2(COC(=O)n3ccnc3)CC[C@]3(C)[C@H](CC[C@@H]4[C@@]5(C)CC[C@H](OC(=O)n6ccnc6)C(C)(C)[C@@H]5CC[C@]43C)[C@@H]12
IC50: 26.1 µM
--
entry smiles: C=C(C)[C@@H]1CC[C@]2(C(=O)n3ccnc3)CC[C@]3(C)[C@H](CC[C@@H]4[C@@]5(C)C=CC(=O)C(C)(C)[C@@H]5CC[C@]43C)[C@@H]12
IC50: 1.7 µM
--
entry smiles: C=C(C)[C@@H]1CC[C@]2(C(=O)OC)CC[C@]3(C)[C@H](CC[C@@H]4[C@@]5(C)CC[C@H](OC(=O)n6ccnc6C)C(C)(C)[C@@H]5CC[C@]43C)[C@@H]12
IC50: 13.4 µM

====

test system: HepG2 cells; test: Cell cycle analysis by flow cytometry (FACS, PI), HepG2; type: cell-based, human; conditions: HepG2, compound at its IC50, 72 h
Property: Phase of cell cycle (% of cells) G2/M; scope: individual molecules

molecule: C=C(C)[C@@H]1CC[C@]2(C(=O)O)CC[C@]3(C)[C@H](CC[C@@H]4[C@@]5(C)CC[C@H](O)C(C)(C)[C@@H]5CC[C@]43C)[C@@H]12 [Compound 2, Betulinic acid, reference compound]
Phase of cell cycle (% of cells) G2/M: 14.3 ± 0.9 % of cells
//
molecule: C=C(C)[C@@H]1CC[C@]2(C(=O)n3ccnc3)CC[C@]3(C)[C@H](CC[C@@H]4[C@@]5(C)CCC(=O)C(C)(C)[C@@H]5CC[C@]43C)[C@@H]12 [Compound 44]
Phase of cell cycle (% of cells) G2/M: 14.9 ± 1.4 % of cells
//
molecule: C=C(C)[C@@H]1CC[C@]2(C(=O)n3ccnc3)CC[C@]3(C)[C@H](CC[C@@H]4[C@@]5(C)C=CC(=O)C(C)(C)[C@@H]5CC[C@]43C)[C@@H]12 [Compound 46]
Phase of cell cycle (% of cells) G2/M: 14.3 ± 1.0 % of cells
//
molecule: C=C(C)[C@@H]1CC[C@]2(CO)CC[C@]3(C)[C@H](CC[C@@H]4[C@@]5(C)CC[C@H](OC(=O)n6ccnc6)C(C)(C)[C@@H]5CC[C@]43C)[C@@H]12 [Compound 20]
Phase of cell cycle (% of cells) G2/M: 14.5 ± 0.8 % of cells
